Data origin, for the record: paper PMC9607427

# Tested on: HCT116 (colorectal carcinoma)
# test_protocol: Cytotoxic MTS assay, HCT116
# Type: cell-based, human
# Experimental: In vitro cytotoxic activity of final compounds 5–82 was evaluated after 3 days of incubation against eight cell lines derived from human solid tumors including lung (A549 cells) and colon (HCT116 and HCT116p53−/−) carcinomas, as well as leukemia cell lines (CCRF-CEM, CEM-DNR, K562, and K562-TAX) and osteosarcoma (U2OS cells). […] Cytotoxic activity was determined by MTS assay following 72 h of incubation. […]
parameter_measured: IC50 (µM)
Numbers only, in µM.

The cases that follow already have their IC50 on record.
COc1cccc(C(=O)OCCCS(=O)(=O)c2cc[n+]([O-])c3cc(Cl)ccc23)c1OC [Compound 74] :: 3.23
COc1ccc(C(=O)OCCS(=O)(=O)c2cc[n+]([O-])c3cc(Cl)ccc23)cc1[N+](=O)[O-] [Compound 69] :: 13.1
Cc1cc(C)cc(C(=O)OCCCS(=O)(=O)c2cc[n+]([O-])c3cc(Cl)ccc23)c1 [Compound 81] :: 3.46

// switching to the query compound
# input Return IC50 measured with HCT116 (colorectal carcinoma) given this compound: COc1cc(OC)c(C(=O)OCCS(=O)(=O)c2cc[n+]([O-])c3cc(Cl)ccc23)cc1OC [Compound 66]
# output 9.22
